Test system: 349418-098-R tumor spheroid viability;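 further: spheroids exposed to compound for 7 days before measurement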
Assay: Anticancer human tumor 349418-098-R patient-derived lung adenocarcinoma cell line growth inhibition; active means viability on the fitted dose curve at most 10% of control; inactive means the rest
Settings: second compound 31.6 µM; first compound 0.949 µM; spheroids with HUVEC and MSC
Procedure: Multicellular complex tumor spheroid response to DNA repair inhibitors in combination with DNA-damaging drugs This study explores the anticancer activities of DNA-damaging drugs and inhibitors of DNA damage repair, both as single agents and in combinations. […] Twenty-six patient-derived or established malignant cell lines were evaluated representing sarcoma, melanoma, small cell lung cancer (SCLC), non-small cell lung cancer (NSCLC), as well as bladder, ovarian and pancreatic cancers. […]
Outcome codes: t = active, f = inactive

molecule="O=C(c1cc(Cc2n[nH]c(=O)c3ccccc23)ccc1F)N1CCN(C(=O)C2CC2)CC1 + Cn1nnc2c(C(N)=O)ncn2c1=O" discrete_label=f
molecule="CNCc1ccc(-c2cc(-c3nc(-c4ccc(S(=O)(=O)C(C)C)cc4)cnc3N)on2)cc1 + Cn1nnc2c(C(N)=O)ncn2c1=O" discrete_label=t
molecule="Cn1ncnc1[C@H]1c2n[nH]c(=O)c3cc(F)cc(c23)N[C@@H]1c1ccc(F)cc1 + Cn1nnc2c(C(N)=O)ncn2c1=O" discrete_label=f
molecule="Cc1sc2c(c1C)C(c1ccc(Cl)cc1)=NC(CC(=O)Nc1ccc(O)cc1)c1nnc(C)n1-2 (centres undefined) + Cn1nnc2c(C(N)=O)ncn2c1=O" discrete_label=t

Measured values drawn from PubChem BioAssay AID1845197 for this set.
